The origin of these recorded values is ChEMBL document CHEMBL3751817.

test system: CCRF-CEM; assay: Cytotoxicity against human CD4+ T-lymphocyte CEM cells; assay type: cell-based
Measured Metric: CC50

Query string: Recorded CC50 for `CCc1c(CNC(=O)c2cc(O)c(O)c(O)c2)c(CC)c(CNC(=O)c2cc(O)c(O)c(O)c2)c(CC)c1CNC(=O)c1cc(O)c(O)c(O)c1` with CCRF-CEM, please?
Result string: 49 µM

Query string: Please provide the recorded CC50 for `CCc1c(CNC(=O)c2ccc(O)c(O)c2O)c(CC)c(CNC(=O)c2ccc(O)c(O)c2O)c(CC)c1CNC(=O)c1ccc(O)c(O)c1O` , tested on CCRF-CEM.
Result string: 144 µM

Query string: State its CC50 on CCRF-CEM: `CN[C@@H]1[C@H](O[C@@H]2OC[C@@H](O)[C@H](O)[C@H]2O)[C@@H](O)[C@H](O[C@H]2c3cc(C)c(C(=O)N[C@H](C)C(=O)O)c(O)c3-c3c(cc4c(c3O)C(=O)c3cc(OC)cc(O)c3C4=O)[C@@H]2O)O[C@@H]1C`
Result string: > 50 µM

Query string: # value lookup — system CCRF-CEM, readout CC50, item CCc1c(CNC(=O)C2C[C@H](O)C(O)[C@@H](O)C2)c(CC)c(CNC(=O)C2C[C@H](O)C(O)[C@@H](O)C2)c(CC)c1CNC(=O)C1C[C@H](O)C(O)[C@@H](O)C1 (stereo not given in full)
Result string: > 250 µM

Query string: API: value(readout=CC50, system=CCRF-CEM) for record `CCc1c(CNCCCCNC(=O)c2ccc(O)c(O)c2O)c(CC)c(CNCCCCNC(=O)c2ccc(O)c(O)c2O)c(CC)c1CNCCCCNC(=O)c1ccc(O)c(O)c1O`
Result string: 25 µM
